The reported numbers originate from PubChem BioAssay (NCI).

Tested on: T-47D breast
Experiment: NCI tumour cell line growth inhibition, 48 h
Task for the reader: assign each of the following compounds its reported TGI.

As a guide, the following entries are already answered.
compound	TGI
COC(=O)CC1C(COC(C)=O)OC(n2cc(C)c(=O)[nH]c2=O)C1OC(C)=O (stereo unspecified)	> 100 µM
Cc1ccc(Cc2n[nH]c(=O)n2-c2ccccc2)cc1	61.8 µM
O=S(=O)(Cc1ccc(Cl)cc1Cl)c1ccc(Cl)cc1	> 100 µM

For each of the compounds below, note its TGI.
1. c1ccc2c(c1)sc1c3cnccc3ccc21
2. S=c1nc(Cc2ccc(Cl)cc2)[nH][nH]1
3. CC(C)CCC[C@@H](C)[C@H]1CC[C@H]2[C@@H]3CC[C@H]4C[C@H](N)CC[C@]4(C)[C@H]3CC[C@]12C
4. Cc1cc(Cl)cc2c(N=Nc3ccccc3[N+](=O)[O-])c(O)[nH]c12
5. Cc1ccc(Cc2n[nH]c(=O)n2/N=C\CC/C=N\n2c(Cc3ccc(C)cc3)n[nH]c2=O)cc1
6. S=C1Cc2c(-c3ccc(Cl)cc3)cc(-c3ccccc3)nc2-c2ccccc2N1

1. > 100 µM
2. 99.6 µM
3. > 100 µM
4. > 100 µM
5. > 100 µM
6. > 100 µM

###

Test system: HOP-92 NSCLC
Experiment: NCI tumour cell line growth inhibition, 48 h
measured-endpoint: GI50

As a guide, the following entries are already answered.
CCCCCc1nc2c(c3c1CCCC3)CCCC2 1.95 µM
COc1ccc(-n2cc(-c3cc(OC)c(OC)c(OC)c3)nc2SCc2ccccc2)cc1 28.9 µM
C#CCN(Cc1nc2cc(C(F)(F)F)ccc2nc1-c1ccccc1)c1ccc(OC(F)(F)F)cc1 18.5 µM

For each of the compounds below, note its GI50.
1. C/C=C/C/C=C/CCC(=O)[C@H]1O[C@H]1C(N)=O
2. CC(C)c1c(C(=O)Nc2ccccc2)c(-c2ccccc2)c(-c2ccc(F)cc2)n1CC[C@@H]1CC=CC(=O)O1

["10.8 µM", "0.419 µM"]

Measured GI50, "CC(C)Nc1ccc(Nc2ccccc2)cc1" : 12 µM

###

Tested on: RXF 393 renal
Assay: NCI tumour cell line growth inhibition, 48 h
measured-endpoint: TGI

As a guide, the following entries are already answered.
compound	system-tested	measured-endpoint	value-observed
Cc1ccc(Cc2n[nH]c(=O)n2-c2ccccc2)cc1	RXF 393 renal	TGI	> 100 µM
Nc1ccc(-c2cssc2=S)cc1	RXF 393 renal	TGI	> 100 µM
Cc1ccccc1C1=[N+]([O-])c2ccccc2C1=O	RXF 393 renal	TGI	37.3 µM
CC1=C(/C=C/C(=O)O)C(C)(C)CCC1	RXF 393 renal	TGI	> 100 µM
CC(=O)Nc1ccc(N=C2C(c3ccccc3)=C(SC3=C(c4ccccc4)C(=Nc4ccc(NC(C)=O)cc4)c4ccccc43)c3ccccc32)cc1	RXF 393 renal	TGI	82.8 µM

For each of the compounds below, note its TGI.
1. CN(C)c1nc2oc(-c3ccccc3)c(-c3ccccc3)c2c2nncn12
2. O=C1CCCC2C(O)CCC[C@H]12 (stereo partly specified)

> 100 µM
> 100 µM

For each of the compounds below, note its TGI.
1. Cc1cc2cc3cc(C)c(N(C)C)cc3[n+](C)c2cc1N(C)C
2. O=C(O)c1cc(=O)[nH]c(SCc2ccccc2)n1
3. O=c1[nH]cnc2c1sc1nc3ccccc3n12

["23.4 µM", "> 100 µM", "84.4 µM"]

Measured TGI, "Clc1ccc(/C=C/c2cc(N3CCOCC3)c3cc(Cl)c(Cl)cc3n2)cc1" : > 100 µM
